experiment: Cytotoxicity against mouse RAW264.7 cells by MTT assay; assay type: cell-based; settings: read-out: LD50 (the source's name)
// CC50 lookup, one value per entry
I only need the number, in nM, no unit after it.

# example entries with known answers
CN(CCO)c1ccc(-c2csc(NC(=O)CCCCCCC(=O)NO)n2)cc1N : 540
Nc1cccc(-c2csc(NC(=O)CCCCCCC(=O)NO)n2)c1 : 600
COc1ccc(-c2csc(NC(=O)CCCCCCC(=O)NO)n2)cc1N : 3200

Note: attention shifts to another entry.
Note to self: CC50 recorded for O=C(CCCCCCC(=O)Nc1ccccc1)NO [VORINOSTAT] was 2200

---

assay: Cmax in ICR mouse at 50 mg/kg/day, sc by LC/MS analysis; type: ADME, organism-based; set-up: dose 50 mg/kg/day, route subcutaneous; details: in vivo
quantityName: Cmax (ng/mL)
I only need the number, in ng/mL, no unit after it.

Note to self: Cmax recorded for Nc1cccc(-c2csc(NC(=O)CCCCCCC(=O)NO)n2)c1 was 403

---

assay: Selectivity index, ratio of LC50 for mouse RAW264.7 cells to IC50 for Plasmodium falciparum; details: RAW264.7 cells
// selectivity ratio lookup, one value per entry

CN(CCO)c1ccc(-c2csc(NC(=O)CCCCCCC(=O)NO)n2)cc1N : 670

Note to self: selectivity ratio recorded for COc1ccc(-c2csc(NC(=O)CCCCCCC(=O)NO)n2)cc1N was 3560

---

assay: Half life in ICR mouse at 50 mg/kg/day, sc by LC/MS analysis; assay type: ADME, organism-based; design: route subcutaneous; details: in vivo
quantityName: half-life

Note to self: half-life recorded for Nc1cccc(-c2csc(NC(=O)CCCCCCC(=O)NO)n2)c1 was 8.5 h

---

test system: Plasmodium falciparum; assay: Antimalarial activity against drug-resistant Plasmodium falciparum TM91C235; assay type: functional, organism-based
// pIC50 lookup, one value per entry
The quantity pIC50 is defined as the negative base-10 logarithm of the molar concentration.

# example entries with known answers
O=C(CCCCCCC(=O)Nc1nc(-c2ccsc2)cs1)NO : 8.19
O=C(CCCCCCC(=O)Nc1nc(-c2ccc3ccccc3c2)cs1)NO : 8.51
COc1ccc(-c2csc(NC(=O)CCCCCCC(=O)NO)n2)cc1N : 9.00
Nc1cccc(-c2csc(C(=O)NCCCCCCC(=O)NO)n2)c1 : 6.77
Cc1cccc(-c2csc(NC(=O)CCCCCCC(=O)NO)n2)c1 : 8.44

Note to self: pIC50 recorded for Nc1cccc(-c2csc(NC(=O)CCCCc3cc(C(=O)NO)no3)n2)c1 was 6.83

---

experiment: Tmax in ICR mouse at 50 mg/kg/day, po by LC/MS analysis; assay type: ADME, organism-based; parameters: route oral; details: in vivo
quantityName: Tmax (min)
I only need the number, in min, no unit after it.

Note to self: Tmax recorded for Nc1cccc(-c2csc(NC(=O)CCCCCCC(=O)NO)n2)c1 was 49.8
